Just for reference, patent US6297216A is where these values come from.

Endpoint: stimulation of MDR1-ATPase. System: MDR1 (Homo sapiens, UniProt P08183). Items follow.
Sequence (P08183 whole entry): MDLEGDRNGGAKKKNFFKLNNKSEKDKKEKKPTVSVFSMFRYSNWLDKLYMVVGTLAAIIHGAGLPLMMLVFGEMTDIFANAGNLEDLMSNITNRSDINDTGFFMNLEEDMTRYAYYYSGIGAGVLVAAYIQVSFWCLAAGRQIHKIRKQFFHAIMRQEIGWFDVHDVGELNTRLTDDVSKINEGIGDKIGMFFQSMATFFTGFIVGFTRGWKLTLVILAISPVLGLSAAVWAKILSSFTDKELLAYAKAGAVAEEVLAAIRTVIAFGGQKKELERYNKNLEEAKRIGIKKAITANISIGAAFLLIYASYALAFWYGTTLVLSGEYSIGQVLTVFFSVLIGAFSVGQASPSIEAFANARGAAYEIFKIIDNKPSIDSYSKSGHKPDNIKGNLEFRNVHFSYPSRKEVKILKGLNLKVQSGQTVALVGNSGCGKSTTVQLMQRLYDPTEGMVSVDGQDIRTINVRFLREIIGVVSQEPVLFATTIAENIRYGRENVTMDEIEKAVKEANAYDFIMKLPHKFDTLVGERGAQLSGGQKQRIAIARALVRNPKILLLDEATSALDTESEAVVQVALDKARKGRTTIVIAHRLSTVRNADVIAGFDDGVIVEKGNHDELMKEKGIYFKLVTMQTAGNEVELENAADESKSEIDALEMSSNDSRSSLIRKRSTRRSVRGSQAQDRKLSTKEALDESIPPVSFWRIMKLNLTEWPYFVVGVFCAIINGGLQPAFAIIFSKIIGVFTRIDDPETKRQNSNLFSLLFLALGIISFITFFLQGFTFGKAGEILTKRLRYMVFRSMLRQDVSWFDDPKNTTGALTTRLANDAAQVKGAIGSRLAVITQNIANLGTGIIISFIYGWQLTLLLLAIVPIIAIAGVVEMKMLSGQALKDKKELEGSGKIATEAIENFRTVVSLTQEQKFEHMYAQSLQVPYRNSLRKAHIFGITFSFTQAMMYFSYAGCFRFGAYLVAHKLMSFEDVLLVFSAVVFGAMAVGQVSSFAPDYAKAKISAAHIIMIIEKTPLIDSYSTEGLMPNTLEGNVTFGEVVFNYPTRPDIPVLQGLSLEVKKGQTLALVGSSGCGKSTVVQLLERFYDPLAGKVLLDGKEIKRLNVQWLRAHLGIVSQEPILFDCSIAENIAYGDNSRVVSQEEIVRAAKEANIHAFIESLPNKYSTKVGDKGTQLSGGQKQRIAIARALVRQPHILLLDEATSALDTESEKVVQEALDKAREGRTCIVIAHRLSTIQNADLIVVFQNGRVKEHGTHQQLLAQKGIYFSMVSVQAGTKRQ
Peptide text beside a SMILES is read from it. * marks the point of attachment. Cbz = O=C(OCc1ccccc1)*; Boc = CC(C)(C)OC(=O)*; OBn = c1ccc(CO*)cc1; OtBu = CC(C)(C)O*

MOLECULE	stimulation of MDR1-ATPase
COC(=O)[C@H](CCCCNC(=O)[C@H](CCC(=O)OCc1ccccc1)NC(=O)OC(C)(C)C)NC(=O)[C@H](CCC(=O)OCc1ccccc1)NC(=O)OC(C)(C)C [Reversin 205, N^α, N^ε -bis[BOC-Glu(OBzl)]-Lys-OMe]	greatly stimulated
C=C[C@H]1C[N@@]2CC[C@H]1C[C@H]2[C@H](O)c1ccnc2ccc(OC)cc12 [quinine, reference compound]	stimulated
CC(C)(C)OC(=O)N[C@@H](CC(=O)OCc1ccccc1)C(=O)N[C@@H](CCCCNC(=O)OCc1ccccc1)C(=O)OC(C)(C)C [Reversin 121, BOC-Asp(OBzl)-Lys(Z)-OtBu] (Boc-Asp(OBn)-Lys(Cbz)-OtBu)	greatly stimulated
CC[C@]1(O)C[C@H]2CN(CCc3c([nH]c4ccccc34)[C@@](C(=O)OC)(c3cc4c(cc3OC)N(C=O)[C@H]3[C@@](O)(C(=O)OC)[C@H](OC(C)=O)[C@]5(CC)C=CCN6CC[C@]43[C@@H]65)C2)C1 [vincristine, reference compound]	stimulated
